Property: combination Emax; scope: individual compounds
# Tested on: ME-180 (Cervical Carcinoma)
# experiment summary: combination Emax (second highest fraction inhibited in the dose matrix, 72 h); higher = more inhibition; extreme values may be limits of the assay
Just the number, please.

1) CS(=O)(=O)CCNCc1ccc(-c2ccc3ncnc(Nc4ccc(OCc5cccc(F)c5)c(Cl)c4)c3c2)o1 [Lapatinib] + NC1(c2ccc(-c3nc4ccn5c(=O)[nH]nc5c4cc3-c3ccccc3)cc2)CCC1 [MK-2206] (first compound max 10 µM, 7x7, partner max 10 µM)
0.758
2) N#Cc1cnc(Nc2cc(NC[C@H]3CNCCO3)c(C(F)(F)F)cn2)cn1 [SRA737] + CCc1c2c(nc3ccc(O)cc13)-c1cc3c(c(=O)n1C2)COC(=O)[C@]3(O)CC [SN-38] (first compound max 10 µM, 7x7, partner max 0.3 µM)
0.95

Can you look up the measured combination Emax of N#Cc1cnc(Nc2cc(NC[C@H]3CNCCO3)c(C(F)(F)F)cn2)cn1 [SRA737] + C=CCn1c(=O)c2cnc(Nc3ccc(N4CCN(C)CC4)cc3)nc2n1-c1cccc(C(C)(C)O)n1 [AZD1775] (first compound max 10 µM, partner max 1 µM) for me?
0.541

###

# Tested on: MV-4-11 (Acute Myeloid Leukemia)
# experiment summary: combination Emax (second highest fraction inhibited in the dose matrix, 72 h); higher = more inhibition; extreme values may be limits of the assay
Listed compounds paired with reported combination Emax
// response body must contain only the number

Some solved entries appear below for comparison.
1) CCN(CCO)CCCOc1ccc2c(Nc3cc(CC(=O)Nc4cccc(F)c4)[nH]n3)ncnc2c1 [AZD2811] + C[C@@H]1COCCN1C2=NC(=NC(=C2)C3(CC3)[S@](=N)(=O)C)C4=C5C=CNC5=NC=C4 [AZD6738] (first compound max 1 µM, 7x7, partner max 10 µM)
0.998
2) CN(CCO)CC[C@H](CSc1ccccc1)Nc1ccc(S(=O)(=O)NC(=O)c2ccc(N3CCC([C@@H](O)c4ccccc4-c4ccc(Cl)cc4)CC3)cc2)cc1S(=O)(=O)C(F)(F)F [AZD4320] + CN(C)CCCOc1ccc(-c2ccc3ncc4c(c3c2)n(C2CCOCC2)c(=O)n4C)cn1 [AZD0156] (first compound max 1 µM, 7x7, partner max 1 µM)
1
3) Cn1cnc2c(F)c(Nc3ccc(Br)cc3Cl)c(C(=O)NOCCO)cc21 [Selumetinib] + C[C@@H]1COCCN1C2=NC(=NC(=C2)C3(CC3)[S@](=N)(=O)C)C4=C5C=CNC5=NC=C4 [AZD6738] (first compound max 10 µM, 7x7, partner max 10 µM)
0.97

Find the recorded combination Emax belonging to C[C@@H]1COCCN1c1cc(C2([S@](C)(=N)=O)CC2)nc(-c2ccnc3[nH]ccc23)n1 [AZD6738] + Nc1ccn([C@@H]2O[C@H](CO)[C@@H](O)C2(F)F)c(=O)n1 [Gemcitabine] (first compound max 10 µM, 7x7, partner max 0.3 µM) and report it.
1

###

# Tested on: SNU-387 (Hepatocellular Carcinoma)
# experiment summary: combination Emax (second highest fraction inhibited in the dose matrix, 72 h); higher = more inhibition; extreme values may be limits of the assay
// values below are reported combination Emax
# output: bare number, no unit

Examples from the recorded data:
1) C[C@@H](c1ccc2nccn2c1)n1nnc2ncc(-c3cnn(C)c3)nc21 [Savolitinib] + CC1(C)CCC(CN2CCN(c3ccc(C(=O)NS(=O)(=O)c4ccc(NCC5CCOCC5)c([N+](=O)[O-])c4)c(Oc4cnc5[nH]ccc5c4)c3)CC2)=C(c2ccc(Cl)cc2)C1 [Venetoclax] (first compound max 1 µM, 7x7, partner max 1 µM)
0.244
2) C[C@@H](Oc1cc(-c2cnn(C3CCNCC3)c2)cnc1N)c1c(Cl)ccc(F)c1Cl [Crizotinib] + Cn1cnc2c(F)c(Nc3ccc(Br)cc3Cl)c(C(=O)NOCCO)cc21 [Selumetinib] (first compound max 10 µM, 7x7, partner max 10 µM)
0.89
3) N#Cc1cnc(Nc2cc(NC[C@H]3CNCCO3)c(C(F)(F)F)cn2)cn1 [SRA737] + O=c1[nH]cc(F)c(=O)[nH]1 [5-Fluorouracil] (first compound max 10 µM, 7x7, partner max 20 µM)
0.364

What does the record list as combination Emax for COc1cccc(OCCCN)c1-c1cc(Nc2cnc(C#N)cn2)n[nH]1 [Prexasertib] + C[C@@H]1COCCN1C2=NC(=NC(=C2)C3(CC3)[S@](=N)(=O)C)C4=C5C=CNC5=NC=C4 [AZD6738] (first compound max 1 µM, 7x7, partner max 10 µM) ?
0.537

Dear colleague, I am looking for the recorded combination Emax of the following molecule: CN(CCO)CC[C@H](CSc1ccccc1)Nc1ccc(S(=O)(=O)NC(=O)c2ccc(N3CCC([C@@H](O)c4ccccc4-c4ccc(Cl)cc4)CC3)cc2)cc1S(=O)(=O)C(F)(F)F [AZD4320] + C=CCn1c(=O)c2cnc(Nc3ccc(N4CCN(C)CC4)cc3)nc2n1-c1cccc(C(C)(C)O)n1 [AZD1775] (first compound max 1 µM, partner max 1 µM)
0.681

May I ask what combination Emax has been recorded for COc1cccc(OCCCN)c1-c1cc(Nc2cnc(C#N)cn2)n[nH]1 [Prexasertib] + CCc1c2c(nc3ccc(O)cc13)-c1cc3c(c(=O)n1C2)COC(=O)[C@]3(O)CC [SN-38] (first compound max 1 µM, 7x7, partner max 0.3 µM) ?
0.795

Record request: combination Emax value, item COc1cc2ncnc(Nc3ccc(F)c(Cl)c3)c2cc1OCCCN1CCOCC1 [Gefitinib] + CC(C)n1c(=O)n(C)c2cnc3cc(F)c(-c4ccc(OCCCN5CCCCC5)nc4)cc3c21 [AZD1390] (first compound max 10 µM, 7x7, partner max 0.3 µM)
0.169

What does the data say about its combination Emax? Entry: Cc1c2c(nn1C)CSCc1cc(n(C)n1)CSc1cc(c3ccccc3c1)OCCCc1c(C(=O)O)n(C)c3c-2c(Cl)ccc13 [AZD5991] + C=CCn1c(=O)c2cnc(Nc3ccc(N4CCN(C)CC4)cc3)nc2n1-c1cccc(C(C)(C)O)n1 [AZD1775] (first compound max 1 µM, partner max 1 µM)
0.581

Query: combination Emax; subject: COc1nnc2ccc(N3CCC(c4ccc(OCCN5CCN(C)C(=O)[C@H]5C)cc4)CC3)nn12 [AZD5153] + Cc1c2c(nn1C)CSCc1cc(n(C)n1)CSc1cc(c3ccccc3c1)OCCCc1c(C(=O)O)n(C)c3c-2c(Cl)ccc13 [AZD5991] (first compound max 1 µM, 7x7, partner max 1 µM)
0.614

I'd like to know its combination Emax. The molecule in question is CC1(C)CCC(CN2CCN(c3ccc(C(=O)NS(=O)(=O)c4ccc(NCC5CCOCC5)c([N+](=O)[O-])c4)c(Oc4cnc5[nH]ccc5c4)c3)CC2)=C(c2ccc(Cl)cc2)C1 [Venetoclax] + C[C@@H]1COCCN1C2=NC(=NC(=C2)C3(CC3)[S@](=N)(=O)C)C4=C5C=CNC5=NC=C4 [AZD6738] (first compound max 1 µM, 7x7, partner max 10 µM)
0.588

Item Cc1c2c(nn1C)CSCc1cc(n(C)n1)CSc1cc(c3ccccc3c1)OCCCc1c(C(=O)O)n(C)c3c-2c(Cl)ccc13 [AZD5991] + CC(=O)O[C@H]1C(=O)[C@@]2(C)[C@H]([C@H](OC(=O)c3ccccc3)[C@]3(O)C[C@H](OC(=O)[C@H](O)[C@@H](NC(=O)c4ccccc4)c4ccccc4)C(C)=C1C3(C)C)[C@]1(OC(C)=O)CO[C@@H]1C[C@@H]2O [Paclitaxel] (first compound max 1 µM, 7x7, partner max 3 µM) has what recorded combination Emax?
0.913

What value of combination Emax has been recorded for this entry: CCc1c2c(nc3ccc(O)cc13)-c1cc3c(c(=O)n1C2)COC(=O)[C@]3(O)CC [SN-38] + CN(C)CCCOc1ccc(-c2ccc3ncc4c(c3c2)n(C2CCOCC2)c(=O)n4C)cn1 [AZD0156] (first compound max 0.3 µM, 7x7, partner max 1 µM)
0.229

Fill blank: measured combination Emax of the molecule C=CCn1c(=O)c2cnc(Nc3ccc(N4CCN(C)CC4)cc3)nc2n1-c1cccc(C(C)(C)O)n1 [AZD1775] + O=C(c1cc(Cc2n[nH]c(=O)c3ccccc23)ccc1F)N1CCN(C(=O)C2CC2)CC1 [Olaparib] (first compound max 1 µM, partner max 10 µM) is ____.
0.567

###

# System: EFO-21 (Ovarian Carcinoma);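 also: after 72 h of two-drug dosing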
# experiment summary: Bliss excess, mean over the matrix (fraction); higher = more synergy
assay metric: Bliss excess
Lab note: jot down the number only; don't add units.

Would you please look over these solved cases?
1) C=CCn1c(=O)c2cnc(Nc3ccc(N4CCN(C)CC4)cc3)nc2n1-c1cccc(C(C)(C)O)n1 [AZD1775] + Nc1ccn([C@@H]2O[C@H](CO)[C@@H](O)C2(F)F)c(=O)n1 [Gemcitabine] (first compound max 1 µM, partner max 0.3 µM)
-0.0653
2) Cc1c2c(nn1C)CSCc1cc(n(C)n1)CSc1cc(c3ccccc3c1)OCCCc1c(C(=O)O)n(C)c3c-2c(Cl)ccc13 [AZD5991] + C[C@@H](Nc1cc(F)cc(F)c1)c1cc(C(=O)N(C)C)cc2c(=O)cc(N3CCOCC3)oc12 [AZD8186] (first compound max 1 µM, 7x7, partner max 3 µM)
-0.0522
3) Cn1cnc2c(F)c(Nc3ccc(Br)cc3Cl)c(C(=O)NOCCO)cc21 [Selumetinib] + C=CCn1c(=O)c2cnc(Nc3ccc(N4CCN(C)CC4)cc3)nc2n1-c1cccc(C(C)(C)O)n1 [AZD1775] (first compound max 10 µM, partner max 1 µM)
-0.0834
4) CC(=O)Nc1cccc(-n2c(=O)n(C3CC3)c(=O)c3c(Nc4ccc(I)cc4F)n(C)c(=O)c(C)c32)c1 [Trametinib] + Cc1nc(-c2cn3c(n2)-c2ccc(-c4cnn(C(C)(C)C(N)=O)c4)cc2OCC3)n(C(C)C)n1 [Taselisib] (first compound max 1 µM, 7x7, partner max 10 µM)
0.048

If you can, please state the reported Bliss excess value of CN(CCO)CC[C@H](CSc1ccccc1)Nc1ccc(S(=O)(=O)NC(=O)c2ccc(N3CCC([C@@H](O)c4ccccc4-c4ccc(Cl)cc4)CC3)cc2)cc1S(=O)(=O)C(F)(F)F [AZD4320] + Cc1cc2ncnn2cc1Nc1ncc2c(n1)n(C1CCOCC1)c(=O)n2C [AZD7648] (first compound max 1 µM, 7x7, partner max 10 µM) .
-0.0461

Return reported Bliss excess; argument: NC1(C(=O)N[C@@H](CCO)c2ccc(Cl)cc2)CCN(c2ncnc3[nH]ccc23)CC1 [Capivasertib] + C[C@@H]1COCCN1C2=NC(=NC(=C2)C3(CC3)[S@](=N)(=O)C)C4=C5C=CNC5=NC=C4 [AZD6738] (first compound max 10 µM, 7x7, partner max 10 µM)
-0.0322

Quick one: Bliss excess of CC(=O)c1c(C)c2cnc(Nc3ccc(N4CCNCC4)cn3)nc2n(C2CCCC2)c1=O [Palbociclib] + Cn1cnc2c(F)c(Nc3ccc(Br)cc3Cl)c(C(=O)NOCCO)cc21 [Selumetinib] (first compound max 10 µM, 7x7, partner max 10 µM) ?
-0.0531
